- EXPERIMENTAL_PROTOCOL: Volume of distribution at steady state in rat at 1 mg/kg, iv
- Format: ADME, organism-based
- Design: dose 1 mg/kg, route intravenous
- ASSAY_CONTEXT: in vivo, read-out: Vdss
ATTRIBUTE_MEASURED: Vd
Dear colleague, please send the value followed by its unit.

Supply recorded Vd for CCc1nc2c(C)cc(CC(C)C)nc2n1[C@H]1CCc2cc(-c3ccccc3-c3nnn[nH]3)ccc21 here. 2.9 L/kg

###

- EXPERIMENTAL_PROTOCOL: AUC in rat at 1 mg/kg, iv
- Assay type: ADME, organism-based
- Set-up: dose 1 mg/kg, route intravenous
- ASSAY_CONTEXT: plasma
ATTRIBUTE_MEASURED: AUC (ng·h/mL)
Give the number; ng·h/mL is assumed, so skip it.

Report AUC, nothing else, for this compound: CCc1nc2c(C)cc(CC(C)C)nc2n1[C@H]1CCc2cc(-c3ccccc3-c3nnn[nH]3)ccc21 1220
